Entry source: patent US20030228675A1

- MEASURED ON: ATX (Homo sapiens)
- PROCEDURE DETAILS: Immune complex kinase assay, immunoprecipitated HA-ATXWT pretreated with drug, GST-p53 1-70 phosphorylation
- Format: biochemical
- Design: was used to isolate a full-length cDNA encoding a novel member of the PIKK family, termed ATX; made in house
- RUN CONDITIONS: pretreatment of immunoprecipitated HA-ATXWT; GST-p53 1-70 substrate; read-out: drug concentration required for 50% inhibition (IC50) of ATX activity in vitro

[
  {
    "STRUCTURE SMILES": "COC[C@H]1OC(=O)c2coc3c2[C@@]1(C)C1=C(C3=O)[C@@H]2CCC(=O)[C@@]2(C)C[C@H]1OC(C)=O",
    "IC50": "10 to 100 nM"
  }
]

---

- MEASURED ON: UniProt Q96Q15
- PROCEDURE DETAILS: ATX kinase activity after drug treatment of intact U2OS cells, immunoprecipitation of endogenous ATX
- Assay type: cell-based
- Set-up: immunoprecipitation of endogenous ATX with α-ATX Ab-2; endogenous in cells; host or cells: U2OS osteosarcoma cells
- RUN CONDITIONS: U2OS cells pretreated for 30 min, endogenous ATX immunoprecipitated with α-ATX Ab-2
- Sequence (Q96Q15 whole entry): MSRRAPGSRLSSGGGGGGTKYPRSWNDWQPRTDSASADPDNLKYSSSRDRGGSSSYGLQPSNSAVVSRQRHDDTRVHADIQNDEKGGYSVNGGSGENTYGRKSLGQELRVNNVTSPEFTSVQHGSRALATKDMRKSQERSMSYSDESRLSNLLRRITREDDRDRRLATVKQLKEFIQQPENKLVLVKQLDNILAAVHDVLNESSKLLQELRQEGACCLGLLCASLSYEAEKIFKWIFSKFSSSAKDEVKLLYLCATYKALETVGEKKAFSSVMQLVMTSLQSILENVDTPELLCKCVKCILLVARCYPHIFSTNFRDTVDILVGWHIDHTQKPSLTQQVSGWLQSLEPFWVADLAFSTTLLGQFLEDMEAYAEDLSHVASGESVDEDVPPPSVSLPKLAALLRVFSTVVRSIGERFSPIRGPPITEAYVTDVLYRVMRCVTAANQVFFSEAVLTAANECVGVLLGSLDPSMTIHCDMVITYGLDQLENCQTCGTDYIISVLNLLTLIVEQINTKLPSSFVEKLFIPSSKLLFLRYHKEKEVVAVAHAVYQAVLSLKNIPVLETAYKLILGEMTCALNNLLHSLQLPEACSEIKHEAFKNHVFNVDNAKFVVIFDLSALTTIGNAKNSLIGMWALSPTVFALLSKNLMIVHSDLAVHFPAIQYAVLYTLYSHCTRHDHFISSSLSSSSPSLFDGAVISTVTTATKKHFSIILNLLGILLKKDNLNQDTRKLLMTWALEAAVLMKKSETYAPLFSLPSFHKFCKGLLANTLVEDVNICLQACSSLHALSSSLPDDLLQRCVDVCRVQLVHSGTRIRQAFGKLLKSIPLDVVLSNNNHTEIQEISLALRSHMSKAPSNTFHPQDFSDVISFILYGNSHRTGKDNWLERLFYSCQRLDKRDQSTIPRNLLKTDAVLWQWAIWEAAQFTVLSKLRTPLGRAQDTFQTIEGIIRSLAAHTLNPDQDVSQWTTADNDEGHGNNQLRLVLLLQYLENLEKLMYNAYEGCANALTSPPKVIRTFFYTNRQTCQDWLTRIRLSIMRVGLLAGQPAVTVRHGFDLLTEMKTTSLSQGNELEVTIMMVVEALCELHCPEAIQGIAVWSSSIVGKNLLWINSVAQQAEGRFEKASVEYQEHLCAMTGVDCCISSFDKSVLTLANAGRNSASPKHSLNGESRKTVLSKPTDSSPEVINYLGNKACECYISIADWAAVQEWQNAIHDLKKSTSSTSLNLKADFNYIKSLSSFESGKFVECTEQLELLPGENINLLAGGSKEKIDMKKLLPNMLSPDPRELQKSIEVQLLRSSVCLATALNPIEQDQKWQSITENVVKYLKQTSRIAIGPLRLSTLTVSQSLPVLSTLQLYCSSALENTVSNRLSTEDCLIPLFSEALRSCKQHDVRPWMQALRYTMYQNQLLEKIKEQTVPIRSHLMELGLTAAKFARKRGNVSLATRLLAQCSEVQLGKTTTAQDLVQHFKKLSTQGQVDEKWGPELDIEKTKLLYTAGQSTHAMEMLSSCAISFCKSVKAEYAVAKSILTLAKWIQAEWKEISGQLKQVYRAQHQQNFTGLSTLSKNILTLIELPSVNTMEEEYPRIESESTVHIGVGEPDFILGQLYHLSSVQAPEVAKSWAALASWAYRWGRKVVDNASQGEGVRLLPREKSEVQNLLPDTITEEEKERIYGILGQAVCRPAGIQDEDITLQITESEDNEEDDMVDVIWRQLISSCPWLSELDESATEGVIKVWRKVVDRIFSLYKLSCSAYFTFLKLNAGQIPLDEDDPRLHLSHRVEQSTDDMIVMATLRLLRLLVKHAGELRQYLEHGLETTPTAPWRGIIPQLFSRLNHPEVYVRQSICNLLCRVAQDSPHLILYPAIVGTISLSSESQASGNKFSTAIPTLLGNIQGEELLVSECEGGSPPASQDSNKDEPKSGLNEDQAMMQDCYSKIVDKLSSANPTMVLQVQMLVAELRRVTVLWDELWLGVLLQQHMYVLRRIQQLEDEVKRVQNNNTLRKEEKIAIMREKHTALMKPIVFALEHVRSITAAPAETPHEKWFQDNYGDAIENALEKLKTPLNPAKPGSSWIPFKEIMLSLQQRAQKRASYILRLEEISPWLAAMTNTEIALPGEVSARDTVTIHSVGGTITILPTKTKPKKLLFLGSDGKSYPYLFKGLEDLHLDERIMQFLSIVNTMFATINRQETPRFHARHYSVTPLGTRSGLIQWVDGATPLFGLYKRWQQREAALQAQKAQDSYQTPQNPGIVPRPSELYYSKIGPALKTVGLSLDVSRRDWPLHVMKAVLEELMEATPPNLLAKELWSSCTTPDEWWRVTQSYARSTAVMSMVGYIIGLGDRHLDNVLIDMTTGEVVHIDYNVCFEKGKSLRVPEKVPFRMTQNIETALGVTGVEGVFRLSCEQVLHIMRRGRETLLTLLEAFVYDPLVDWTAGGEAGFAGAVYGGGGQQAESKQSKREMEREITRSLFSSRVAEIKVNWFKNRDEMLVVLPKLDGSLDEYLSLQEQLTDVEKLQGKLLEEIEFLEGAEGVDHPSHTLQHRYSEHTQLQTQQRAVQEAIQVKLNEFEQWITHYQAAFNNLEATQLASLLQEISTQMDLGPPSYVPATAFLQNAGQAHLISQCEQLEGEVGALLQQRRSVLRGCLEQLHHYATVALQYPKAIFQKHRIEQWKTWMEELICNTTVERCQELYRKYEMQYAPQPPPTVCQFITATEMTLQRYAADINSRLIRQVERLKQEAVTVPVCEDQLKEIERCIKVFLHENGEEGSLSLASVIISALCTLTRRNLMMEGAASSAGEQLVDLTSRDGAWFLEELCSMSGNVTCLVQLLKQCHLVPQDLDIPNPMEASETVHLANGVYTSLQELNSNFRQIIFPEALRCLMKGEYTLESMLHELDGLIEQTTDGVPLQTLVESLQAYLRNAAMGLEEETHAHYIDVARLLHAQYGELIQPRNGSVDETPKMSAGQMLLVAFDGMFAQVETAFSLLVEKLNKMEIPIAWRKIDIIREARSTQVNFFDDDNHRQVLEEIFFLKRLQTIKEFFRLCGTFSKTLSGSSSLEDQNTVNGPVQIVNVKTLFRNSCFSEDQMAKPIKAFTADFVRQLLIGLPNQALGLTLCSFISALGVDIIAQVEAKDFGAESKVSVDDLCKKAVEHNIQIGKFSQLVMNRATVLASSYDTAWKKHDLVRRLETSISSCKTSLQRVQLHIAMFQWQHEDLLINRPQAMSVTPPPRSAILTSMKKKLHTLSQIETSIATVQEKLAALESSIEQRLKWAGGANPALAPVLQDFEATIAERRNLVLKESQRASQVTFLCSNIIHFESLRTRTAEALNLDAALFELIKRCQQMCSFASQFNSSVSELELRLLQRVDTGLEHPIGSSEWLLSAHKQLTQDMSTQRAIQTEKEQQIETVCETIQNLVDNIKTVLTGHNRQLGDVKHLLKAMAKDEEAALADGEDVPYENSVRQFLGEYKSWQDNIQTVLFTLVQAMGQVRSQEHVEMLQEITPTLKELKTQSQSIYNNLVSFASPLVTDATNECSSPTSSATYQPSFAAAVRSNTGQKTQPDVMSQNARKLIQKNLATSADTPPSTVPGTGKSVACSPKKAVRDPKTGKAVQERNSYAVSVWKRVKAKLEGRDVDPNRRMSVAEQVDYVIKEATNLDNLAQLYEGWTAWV
MEASUREMENT LABEL: IC50

[
  {
    "MOLECULE": "COC[C@H]1OC(=O)c2coc3c2[C@@]1(C)C1=C(C3=O)[C@@H]2CCC(=O)[C@@]2(C)C[C@H]1OC(C)=O [wortmannin]",
    "MEASUREMENT LABEL": "IC50",
    "REPORTED MEASUREMENT": "1000 to 3000 nM"
  }
]
